Listed next: entries and their corresponding pIC50.
# Tested on: GSK-3β
# protocol-description: MSD assay, GSK-3β phosphorylation in cell lysates
# Type: cell-based
# measurement-setup: PC3 cell line; read-out: MSD GSK-3β
pIC50: −log10 of the molar value.
quantity: pIC50

                                    compound  result_modifier  numeric_value
 0  CCN1C(=O)CNc2ncc(-c3ccc4[nH]ccc4n3)nc21 [C-166]                <           6.30
 1  Cc1nc(-c2nnc[nH]2)ccc1-c1cnc2c(n1)N(CCC1CCOCC1)C(=O)CN2 [C-9]                =           6.67
 2  Nc1cc(-c2cnc3c(n2)N(CCC2CCOCC2)C(=O)CN3)ccn1 [C-115]                <           6.30
 3  CCN1C(=O)CNc2ncc(-c3ccc(-c4nnc[nH]4)nc3C)nc21 [C-54]                =           6.74
 4  O=C1CN(C2CCC(O)CC2)c2nc(-c3ccc(-c4nc[nH]n4)nc3)cnc2N1 (centres unmarked) [C-153]                <           6.30
 5  COCCN1C(=O)CNc2ncc(-c3ccc(-c4ncn[nH]4)nc3)nc21 [C-151]                <           6.30
 6  Nc1ncc(-c2cnc3c(n2)N(CCC2CCOCC2)C(=O)CN3)cn1 [C-116]                =           5.40
 7  COCCN1C(=O)CNc2ncc(-c3ccc(-c4cc[nH]n4)cc3)nc21 [C-112]                <           6.30
 8  O=C1CN([C@H]2CC[C@H](O)CC2)c2nc(-c3ccc(-c4nc[nH]n4)nc3)cnc2N1 [C-144]                <           6.30
 9  CO[C@H]1CC[C@@H](CN2C(=O)CNc3ncc(-c4ccc(-c5nc[nH]n5)nc4)nc32)CC1 [C-165]                =           8.52
10  Cc1cc(-c2nc[nH]n2)c(F)cc1-c1cnc2c(n1)N([C@H]1CC[C@@H](O)CC1)C(=O)CN2 [C-155]                =           6.62
11  COCCN1CC(=O)Nc2ncc(-c3ccc(-c4nc[nH]n4)nc3)nc21 [C-135]                <           5.82
12  Cc1nc(-c2nnc[nH]2)ccc1-c1cnc2c(n1)N(C(C)C)C(=O)CN2 [C-69]                =           6.40
13  O=C1CN(CC2CCC(O)CC2)c2nc(-c3ccc(-c4nc[nH]n4)nc3)cnc2N1 (centres unmarked) [C-149]                <           5.30

* * *

# Test system: Phospho-p70S6K (T389)
# protocol-description: MSD assay, phospho-p70S6K (T389) in cell lysates
# Format: cell-based
# measurement-setup: PC3 cell line; read-out: MSD p70S6K
With a cut-off of 40 nM, any IC50 strictly below it is called criterion met; any IC50 meeting it or above is called criterion not met.

                                    molecule        label_value
 0  COC1CCC(CN2C(=O)CNc3ncc(-c4cc(F)c(-c5nc[nH]n5)cc4C)nc32)CC1 (centres unmarked) [C-167]      criterion met
 1  O=C1CN([C@H]2CC[C@H](O)CC2)c2nc(-c3ccc(-c4nc[nH]n4)nc3)cnc2N1 [C-144]  criterion not met
 2  Nc1cc(-c2cnc3c(n2)N(CCC2CCOCC2)C(=O)CN3)ccn1 [C-115]  criterion not met
 3  O=C1CNc2ncc(-c3cccc4[nH]ncc34)nc2N1CCC1CCOCC1 [C-117]  criterion not met
 4  COC1CCC(N2C(=O)CNc3ncc(-c4ccc(C(C)(C)O)nc4)nc32)CC1 (centres unmarked) [C-15]  criterion not met
 5  COCCN1C(=O)CNc2ncc(-c3ccc(-c4cc[nH]n4)cc3)nc21 [C-112]      criterion met
 6  COC1CCC(N2C(=O)CNc3ncc(-c4ccc(-c5nnc[nH]5)nc4C)nc32)CC1 (centres unmarked) [C-16]      criterion met
 7  Cc1cc(-c2nc[nH]n2)c(F)cc1-c1cnc2c(n1)N(CC1CCC(O)CC1)C(=O)CN2 (centres unmarked) [C-147]      criterion met
 8  CCN1CC(=O)Nc2ncc(-c3cc(F)c(-c4nc[nH]n4)cc3C)nc21 [C-119]      criterion met
 9  CCn1c(=O)[nH]c2ncc(-c3ccc(-c4ncn[nH]4)c(F)c3C)nc21 [C-12]  criterion not met
10  Cc1cc(-c2nc[nH]n2)c(F)cc1-c1cnc2c(n1)N([C@H]1CC[C@H](O)CC1)C(=O)CN2 [C-130]      criterion met
11  O=C1CN(CC2CCC(O)CC2)c2nc(-c3ccc(-c4nc[nH]n4)nc3)cnc2N1 (centres unmarked) [C-154]  criterion not met
12  O=C1CNc2ncc(-c3ccc(-c4nc[nH]n4)nc3)nc2N1C1CCOCC1 [C-152]      criterion met
13  CCN1C(=O)CNc2ncc(-c3ccc(-c4nnc[nH]4)nc3C)nc21 [C-54]      criterion met
14  Cc1nc(-c2nnc[nH]2)ccc1-c1cnc2c(n1)N(CCC1CCOCC1)C(=O)CN2 [C-9]      criterion met
15  CCN1C(=O)CNc2ncc(-c3cnc4[nH]ccc4c3)nc21 [C-103]  criterion not met
16  COCCN1CC(=O)Nc2ncc(-c3ccc(-c4nc[nH]n4)nc3)nc21 [C-135]  criterion not met
17  Cc1cc(-c2nc[nH]n2)c(F)cc1-c1cnc2c(n1)N(CC1CCC(O)CC1)CC(=O)N2 (centres unmarked) [C-157]      criterion met
18  COC1CCC(N2CC(=O)Nc3ncc(-c4cc(F)c(-c5nc[nH]n5)cc4C)nc32)CC1 (centres unmarked) [C-148]      criterion met
19  Cc1cc(-c2nc[nH]n2)c(F)cc1-c1cnc2c(n1)N(C1CCC(O)CC1)CC(=O)N2 (centres unmarked) [C-123]      criterion met
20  COC1CCC(N2CC(=O)Nc3ncc(-c4cc(F)c(-c5ncn[nH]5)cc4C)nc32)CC1 (centres unmarked) [C-132]  criterion not met
21  O=C1CN(CCC2CCOCC2)c2nc(-c3c[nH]c4ncccc34)cnc2N1 [C-169]  criterion not met
22  COCCN1C(=O)CNc2ncc(-c3cc(F)c(-c4nc[nH]n4)cc3C)nc21 [C-129]      criterion met
23  COC1CCC(CN2CC(=O)Nc3ncc(-c4cc(F)c(-c5nc[nH]n5)cc4C)nc32)CC1 (centres unmarked) [C-163]  criterion not met
24  Cc1cc(-c2nc[nH]n2)c(F)cc1-c1cnc2c(n1)N(C1CCC(O)CC1)CC(=O)N2 (centres unmarked) [C-133]  criterion not met

Each recorded value in this set is attributed to patent US9557338B2.
